Reference for the values: patent US20110318277A1

- testProtocol: Aerosol exposure study of tacrolimus in rats, blood and lung pharmacokinetics
- Assay type: in vivo, male Sprague-dawley rats
- particulars: male, Sprague-Dawley, inhaled or intranasal; lung; High Inhalation 0.256 mg/kg, rat
testReadout: half-life (h)
# number only, unit h dropped from output

Task: Provide half-life value for the following compound: C=CC[C@@H]1/C=C(\C)C[C@H](C)C[C@H](OC)[C@H]2O[C@@](O)(C(=O)C(=O)N3CCCC[C@H]3C(=O)O[C@H](/C(C)=C/[C@@H]3CC[C@@H](O)[C@H](OC)C3)[C@H](C)[C@@H](O)CC1=O)[C@H](C)C[C@@H]2OC
Result: 23.4

---

- testProtocol: Aerosol exposure study of tacrolimus in rats, blood and lung pharmacokinetics
- Assay type: in vivo, male Sprague-dawley rats
- particulars: male, Sprague-Dawley, inhaled or intranasal; lung; Low Inhalation 0.072 mg/kg, rat
testReadout: Tmax (min)
# number only, unit min dropped from output

Task: Provide Tmax value for the following molecule: C=CC[C@@H]1/C=C(\C)C[C@H](C)C[C@H](OC)[C@H]2O[C@@](O)(C(=O)C(=O)N3CCCC[C@H]3C(=O)O[C@H](/C(C)=C/[C@@H]3CC[C@@H](O)[C@H](OC)C3)[C@H](C)[C@@H](O)CC1=O)[C@H](C)C[C@@H]2OC [tacrolimus]
Result: 4.98

---

- testProtocol: Aerosol exposure study of tacrolimus in rats, blood and lung pharmacokinetics
- Assay type: in vivo, male Sprague-dawley rats
- particulars: male, Sprague-Dawley, inhaled or intranasal; blood; Low Inhalation 0.072 mg/kg, rat
testReadout: half-life (min)
# number only, unit min dropped from output

Task: Provide half-life value for the following compound: C=CC[C@@H]1/C=C(\C)C[C@H](C)C[C@H](OC)[C@H]2O[C@@](O)(C(=O)C(=O)N3CCCC[C@H]3C(=O)O[C@H](/C(C)=C/[C@@H]3CC[C@@H](O)[C@H](OC)C3)[C@H](C)[C@@H](O)CC1=O)[C@H](C)C[C@@H]2OC [tacrolimus]
Result: 179

---

- testProtocol: Aerosol exposure study of tacrolimus in rats, blood and lung pharmacokinetics
- Assay type: in vivo, male Sprague-dawley rats
- particulars: male, Sprague-Dawley, inhaled or intranasal; lung; High Inhalation 0.256 mg/kg, rat
testReadout: Tmax (min)
# number only, unit min dropped from output

Task: Provide Tmax value for the following molecule: C=CC[C@@H]1/C=C(\C)C[C@H](C)C[C@H](OC)[C@H]2O[C@@](O)(C(=O)C(=O)N3CCCC[C@H]3C(=O)O[C@H](/C(C)=C/[C@@H]3CC[C@@H](O)[C@H](OC)C3)[C@H](C)[C@@H](O)CC1=O)[C@H](C)C[C@@H]2OC
Result: 4.98

---

- testProtocol: Aerosol exposure study of tacrolimus in rats, blood and lung pharmacokinetics
- Assay type: in vivo, male Sprague-dawley rats
- particulars: male, Sprague-Dawley, 0.4 mg/kg; lung; IV Bolus 0.400 mg/kg, rat
testReadout: Cmax (ng/g)
# number only, unit ng/g dropped from output

Task: Provide Cmax value for the following compound: C=CC[C@@H]1/C=C(\C)C[C@H](C)C[C@H](OC)[C@H]2O[C@@](O)(C(=O)C(=O)N3CCCC[C@H]3C(=O)O[C@H](/C(C)=C/[C@@H]3CC[C@@H](O)[C@H](OC)C3)[C@H](C)[C@@H](O)CC1=O)[C@H](C)C[C@@H]2OC
Result: 19100

---

- testProtocol: Aerosol exposure study of tacrolimus in rats, blood and lung pharmacokinetics
- Format: in vivo, male Sprague-dawley rats
- particulars: male, Sprague-Dawley, inhaled or intranasal; blood; Low Inhalation 0.072 mg/kg, rat
testReadout: Tmax (min)
# number only, unit min dropped from output

Task: Provide Tmax value for the following compound: C=CC[C@@H]1/C=C(\C)C[C@H](C)C[C@H](OC)[C@H]2O[C@@](O)(C(=O)C(=O)N3CCCC[C@H]3C(=O)O[C@H](/C(C)=C/[C@@H]3CC[C@@H](O)[C@H](OC)C3)[C@H](C)[C@@H](O)CC1=O)[C@H](C)C[C@@H]2OC [tacrolimus]
Result: 4.98

---

- testProtocol: Aerosol exposure study of tacrolimus in rats, blood and lung pharmacokinetics
- Type: in vivo, male Sprague-dawley rats
- particulars: male, Sprague-Dawley, 0.4 mg/kg; blood; IV Bolus 0.400 mg/kg, rat
testReadout: AUC(0-t) (ng·h/mL)
# number only, unit ng·h/mL dropped from output

Task: Provide AUC(0-t) value for the following molecule: C=CC[C@@H]1/C=C(\C)C[C@H](C)C[C@H](OC)[C@H]2O[C@@](O)(C(=O)C(=O)N3CCCC[C@H]3C(=O)O[C@H](/C(C)=C/[C@@H]3CC[C@@H](O)[C@H](OC)C3)[C@H](C)[C@@H](O)CC1=O)[C@H](C)C[C@@H]2OC [tacrolimus]
Result: 179

---

- testProtocol: Aerosol exposure study of tacrolimus in rats, blood and lung pharmacokinetics
- Format: in vivo, male Sprague-dawley rats
- particulars: male, Sprague-Dawley, 0.4 mg/kg; lung; IV Bolus 0.400 mg/kg, rat
testReadout: Tmax (min)
# number only, unit min dropped from output

Task: Provide Tmax value for the following compound: C=CC[C@@H]1/C=C(\C)C[C@H](C)C[C@H](OC)[C@H]2O[C@@](O)(C(=O)C(=O)N3CCCC[C@H]3C(=O)O[C@H](/C(C)=C/[C@@H]3CC[C@@H](O)[C@H](OC)C3)[C@H](C)[C@@H](O)CC1=O)[C@H](C)C[C@@H]2OC [tacrolimus]
Result: 4.98

---

- testProtocol: Aerosol exposure study of tacrolimus in rats, blood and lung pharmacokinetics
- Assay type: in vivo, male Sprague-dawley rats
- particulars: male, Sprague-Dawley, inhaled or intranasal; blood; High Inhalation 0.256 mg/kg, rat
testReadout: Tmax (min)
# number only, unit min dropped from output

Task: Provide Tmax value for the following compound: C=CC[C@@H]1/C=C(\C)C[C@H](C)C[C@H](OC)[C@H]2O[C@@](O)(C(=O)C(=O)N3CCCC[C@H]3C(=O)O[C@H](/C(C)=C/[C@@H]3CC[C@@H](O)[C@H](OC)C3)[C@H](C)[C@@H](O)CC1=O)[C@H](C)C[C@@H]2OC [tacrolimus]
Result: 4.98

---

- testProtocol: Aerosol exposure study of tacrolimus in rats, blood and lung pharmacokinetics
- Assay type: in vivo, male Sprague-dawley rats
- particulars: male, Sprague-Dawley, inhaled or intranasal; lung; Low Inhalation 0.072 mg/kg, 30 min aerosol exposure, rat
testReadout: Cmax (ng/g)
# number only, unit ng/g dropped from output

Task: Provide Cmax value for the following compound: C=CC[C@@H]1/C=C(\C)C[C@H](C)C[C@H](OC)[C@H]2O[C@@](O)(C(=O)C(=O)N3CCCC[C@H]3C(=O)O[C@H](/C(C)=C/[C@@H]3CC[C@@H](O)[C@H](OC)C3)[C@H](C)[C@@H](O)CC1=O)[C@H](C)C[C@@H]2OC [tacrolimus]
Result: 9960

---

- testProtocol: Aerosol exposure study of tacrolimus in rats, blood and lung pharmacokinetics
- Type: in vivo, male Sprague-dawley rats
- particulars: male, Sprague-Dawley, 0.4 mg/kg; lung; IV Bolus 0.400 mg/kg, rat
testReadout: half-life (h)
# number only, unit h dropped from output

Task: Provide half-life value for the following compound: C=CC[C@@H]1/C=C(\C)C[C@H](C)C[C@H](OC)[C@H]2O[C@@](O)(C(=O)C(=O)N3CCCC[C@H]3C(=O)O[C@H](/C(C)=C/[C@@H]3CC[C@@H](O)[C@H](OC)C3)[C@H](C)[C@@H](O)CC1=O)[C@H](C)C[C@@H]2OC
Result: 24.5

---

- testProtocol: Aerosol exposure study of tacrolimus in rats, blood and lung pharmacokinetics
- Format: in vivo, male Sprague-dawley rats
- particulars: male, Sprague-Dawley, 0.4 mg/kg; blood; IV Bolus 0.400 mg/kg, rat
testReadout: Cmax (ng/mL)
# number only, unit ng/mL dropped from output

Task: Provide Cmax value for the following molecule: C=CC[C@@H]1/C=C(\C)C[C@H](C)C[C@H](OC)[C@H]2O[C@@](O)(C(=O)C(=O)N3CCCC[C@H]3C(=O)O[C@H](/C(C)=C/[C@@H]3CC[C@@H](O)[C@H](OC)C3)[C@H](C)[C@@H](O)CC1=O)[C@H](C)C[C@@H]2OC
Result: 78.2

---

- testProtocol: Aerosol exposure study of tacrolimus in rats, blood and lung pharmacokinetics
- Type: in vivo, male Sprague-dawley rats
- particulars: male, Sprague-Dawley, 0.4 mg/kg; blood; IV Bolus 0.400 mg/kg, rat
testReadout: Tmax (min)
# number only, unit min dropped from output

Task: Provide Tmax value for the following compound: C=CC[C@@H]1/C=C(\C)C[C@H](C)C[C@H](OC)[C@H]2O[C@@](O)(C(=O)C(=O)N3CCCC[C@H]3C(=O)O[C@H](/C(C)=C/[C@@H]3CC[C@@H](O)[C@H](OC)C3)[C@H](C)[C@@H](O)CC1=O)[C@H](C)C[C@@H]2OC [tacrolimus]
Result: 4.98

---

- testProtocol: Aerosol exposure study of tacrolimus in rats, blood and lung pharmacokinetics
- Type: in vivo, male Sprague-dawley rats
- particulars: male, Sprague-Dawley, inhaled or intranasal; blood; High Inhalation 0.256 mg/kg, 30 min aerosol exposure, rat
testReadout: Cmax

Task: Provide Cmax value for the following molecule: C=CC[C@@H]1/C=C(\C)C[C@H](C)C[C@H](OC)[C@H]2O[C@@](O)(C(=O)C(=O)N3CCCC[C@H]3C(=O)O[C@H](/C(C)=C/[C@@H]3CC[C@@H](O)[C@H](OC)C3)[C@H](C)[C@@H](O)CC1=O)[C@H](C)C[C@@H]2OC
Result: 149 ng/mL
